All figures here come from patent US20250115577A1.

Consider the following molecules and their measured CC50 readings.
Test system: MOLT-4 cells
Assay Info: Cell viability assay (CellTiter-Glo), MOLT-4
Assay type: cell-based
Run Parameters: Homo sapiens, 72 h, 3 days of incubation

COc1cccc(CN(C(=O)c2cc(-c3cc(F)c(OC(F)F)cc3C(=O)N3Cc4ccccc4C[C@H]3CN3CCOCC3)n(C)c2C)c2ccc(Cl)cc2)c1C
≤ 5 µM
N#Cc1ccccc1CN(C(=O)c1cc(-c2cc(Cl)ccc2C(=O)N2Cc3ccccc3C[C@H]2CN2CCOCC2)n2c1CCCC2)c1ccc(O)cc1
≤ 5 µM

The record that follows has no CC50 shown yet.
Form field - read-out: CC50; system: MOLT-4 cells; submitted item: COc1cccc(CN(C(=O)c2cc(-c3cc(Cl)c(C#N)cc3C(=O)N3Cc4ccccc4C[C@H]3CN3CCOCC3)n(C)c2C)c2ccc(O)cc2)c1C
≤ 5 µM

###

Test system: caspase-3 and -7 activities in RS4-11 cells
Assay Info: Caspase-3/7 activation (Caspase-Glo 3/7) in RS4-11 cells
Format: cell-based
Run Parameters: Homo sapiens, 3.5 h, read-out: Cas-3/7 EC50
Experimental: Example E. Caspase-3/7 Activation Assay Principle: The Caspase-Glo 3/7 Assay is homogeneous, luminescent assay that measures caspase-3 and -7 activities. […] Assay Procedure: Incubate RS4-11 (ATCC, CRL-1873) cells in the 384-well white plate (Corning, #3570) with varying concentrations of test compounds for 3.5 h in a humidified incubator at 37° C. and 5% CO2 for 30 min at rt. […] Read on the CLARIOstar Plus (BMG LABTECH) instrument. […]
Measurement Name: EC50

COc1cc(-c2cc(C(=O)N(Cc3ccccc3OC)c3ccc(Cl)cc3)c(C)n2C)c(C(=O)N2Cc3ccccc3C[C@H]2CN2CCOCC2)cc1C#N
> 500 nM
COc1cccc(CN(C(=O)c2cc(-c3cc(Cl)c(C#N)cc3C(=O)N3Cc4ccccc4C[C@H]3CN3CCOCC3)n(C)c2C)c2ccc(O)cc2)c1C
> 500 nM
COc1cccc(CN(C(=O)c2cc(-c3cc(C(F)F)c(Cl)cc3C(=O)N3Cc4ccccc4C[C@H]3CN3CCOCC3)n(C)c2C)c2ccc(O)cc2)c1C
> 500 nM

What value of EC50 has been recorded for this entry: COc1cccc(CN(C(=O)c2cc(-c3cc(Cl)c(F)cc3C(=O)N3Cc4ccccc4C[C@H]3CN3CCOCC3)n(C)c2C)c2ccc(C#N)cc2)c1C
> 500 nM

What value of EC50 has been recorded for this entry: COc1cccc(CN(C(=O)c2cc(-c3cc(F)c(OC(F)F)cc3C(=O)N3Cc4ccccc4C[C@H]3CN3CCOCC3)n(C)c2C)c2ccc(O)cc2)c1C
200 to 500 nM

What value of EC50 has been recorded for this entry: COc1cccc(CN(C(=O)c2cc(-c3cc(Cl)c(OC(F)F)cc3C(=O)N3Cc4ccccc4C[C@H]3CN3CCOCC3)n(C)c2C)c2ccc(Cl)cc2)c1C
> 500 nM

###

Assay Info: Cell viability assay (CellTiter-Glo), HEK293
Type: cell-based
Run Parameters: human, HEK293 cells, 3 days of incubation
Measurement Name: CC50 at 3 days

Worked examples, 2 molecules total:
COc1cc(-c2cc(C(=O)N(Cc3ccccc3OC)c3ccc(Cl)cc3)c(C)n2C)c(C(=O)N2Cc3ccccc3C[C@H]2CN2CCOCC2)cc1C#N
≤ 10 µM
COc1cccc(CN(C(=O)c2cc(-c3cc(F)c(OC(F)F)cc3C(=O)N3Cc4ccccc4C[C@H]3CN3CCOCC3)n(C)c2C)c2ccc(O)cc2)c1C
> 25 µM

What value of CC50 at 3 days has been recorded for this entry: COc1cc(-c2cc(C(=O)N(Cc3cccc(OC)c3C)c3ccc(O)cc3)c(C)n2C)c(C(=O)N2Cc3ccccc3C[C@H]2CN2CCOCC2)cc1C#N
> 25 µM

###

Target Or System: BCL-2 [G101V] (Homo sapiens (Human), UniProt P10415, G101V)
Assay Info: BCL-2 [G101V] TR-FRET Assay (primary PPI inhibition)
Format: binding
Run Parameters: 60 min incubation, read-out: BCL2[G101V] IC50
pIC50: −log10 of the molar value.
Measurement Name: pIC50

Worked examples, 2 molecules total:
COc1cccc(CN(C(=O)c2cc(-c3cc(Cl)c(OC(F)F)cc3C(=O)N3Cc4ccccc4C[C@H]3CN3CCOCC3)n(C)c2C)c2ccc(O)cc2)c1C
6.00 to 7.00
COc1cccc(CN(C(=O)c2cc(-c3cc(S(C)(=O)=O)ccc3C(=O)N3Cc4ccccc4C[C@H]3CN3CCOCC3)n(C)c2C)c2ccc(O)cc2)c1C
≥ 7.00

What value of pIC50 has been recorded for this entry: COc1cccc(CN(C(=O)c2cc(-c3cc(F)c(OC(F)F)cc3C(=O)N3Cc4ccccc4C[C@H]3CN3CCOCC3)n(C)c2C)c2ccc(O)cc2)c1C
< 6.00

What value of pIC50 has been recorded for this entry: COc1cc(C(=O)N2Cc3ccccc3C[C@H]2CN2CCOCC2)c(-c2cc(C(=O)N(Cc3cccc(OC)c3C)c3ccc(O)cc3)c(C)n2C)cc1Cl
6.00 to 7.00

What value of pIC50 has been recorded for this entry: COc1cccc(CN(C(=O)c2cc(-c3cc(F)c(F)cc3C(=O)N3Cc4ccccc4C[C@H]3CN3CCOCC3)n(C)c2C)c2ccc(O)cc2)c1C
6.00 to 7.00

What value of pIC50 has been recorded for this entry: COc1cccc(CN(C(=O)c2cc(-c3cc(Cl)ccc3C(=O)N3Cc4ccccc4C[C@H]3CN3CCOCC3)n(C)c2C)c2ccc3[nH]ncc3c2)c1C
< 6.00

###

Consider the following compounds and their measured CC50 readings.
Test system: MOLT-4 cells
Assay Info: Cell viability assay (CellTiter-Glo), MOLT-4
Format: cell-based
Run Parameters: Homo sapiens, 72 h, 3 days of incubation

COc1cccc(CN(C(=O)c2cc(-c3cc(F)c(F)cc3C(=O)N3Cc4ccccc4C[C@H]3CN3CCOCC3)n(C)c2C)c2ccc(O)cc2)c1C
≤ 5 µM
Cc1c(C(=O)N(Cc2ccccc2C#N)c2ccc(O)cc2)cc(-c2cc([N+](=O)[O-])ccc2C(=O)N2Cc3ccccc3C[C@H]2CN2CCOCC2)n1C
≤ 5 µM

The record that follows has no CC50 shown yet.
What value of CC50 has been recorded for this entry: COc1cc(C(=O)N2Cc3ccccc3C[C@H]2CN2CCOCC2)c(-c2cc(C(=O)N(Cc3cccc(OC)c3C)c3ccc(O)cc3)c(C)n2C)cc1Cl
≤ 5 µM

###

Entries below carry reported pIC50 on UniProt Q07817.
Sequence (Q07817 whole entry): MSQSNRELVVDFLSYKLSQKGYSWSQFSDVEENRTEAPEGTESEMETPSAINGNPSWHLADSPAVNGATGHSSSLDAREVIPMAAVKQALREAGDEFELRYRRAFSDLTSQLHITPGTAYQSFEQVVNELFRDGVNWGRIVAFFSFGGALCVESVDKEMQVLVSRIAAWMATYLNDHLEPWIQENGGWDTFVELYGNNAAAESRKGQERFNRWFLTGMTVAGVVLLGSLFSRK
pIC50: −log10 of the molar value.

COc1cccc(CN(C(=O)c2cc(-c3cc(F)ccc3C(=O)N3Cc4ccccc4C[C@H]3CN3CCOCC3)n(C)c2C)c2ccc(O)cc2)c1C [Compound 52]
5.30 to 5.70
COc1cccc(CN(C(=O)c2cc(-c3cc(Cl)c(OC(F)F)cc3C(=O)N3Cc4ccccc4C[C@H]3CN3CCOCC3)n(C)c2C)c2ccc(C#N)cc2)c1C [Compound 40]
5.30 to 5.70
N#Cc1ccccc1CN(C(=O)c1cc(-c2cc(Cl)ccc2C(=O)N2Cc3ccccc3C[C@H]2CN2CCOCC2)n2c1CCCC2)c1ccc(Cl)cc1 [Compound 1]
< 5.30
COc1cc(C(=O)N2Cc3ccccc3C[C@H]2CN2CCOCC2)c(-c2cc(C(=O)N(Cc3cccc(OC)c3C)c3ccc(O)cc3)c(C)n2C)cc1F [Compound 21]
5.30 to 5.70
COc1ccccc1CN(C(=O)c1cc(-c2cc(F)ccc2C(=O)N2Cc3ccccc3C[C@H]2CN2CCOCC2)n(C)c1C)c1ccc(O)cc1 [Compound 54]
≥ 5.70

The record that follows has no pIC50 shown yet.
Form field - read-out: pIC50; system: UniProt Q07817; submitted item: COc1ccccc1CN(C(=O)c1cc(-c2cc(Cl)ccc2C(=O)N2Cc3ccccc3C[C@H]2CN2CCOCC2)n(C)c1C)c1ccc2[nH]ncc2c1 [Compound 69]
< 5.30

###

Target Or System: BCL-2 (Homo sapiens (Human), UniProt P10415)
pIC50: −log10 of the molar value.
Measurement Name: pIC50

Worked examples, 6 compounds total:
COc1ccccc1CN(C(=O)c1cc(-c2cc(Cl)ccc2C(=O)N2Cc3ccccc3C[C@H]2CN2CCOCC2)n(C)c1C)c1ccc2[nH]ncc2c1
7.30 to 8.00
COc1cccc(CN(C(=O)c2cc(-c3cc(F)c(OC(F)F)cc3C(=O)N3Cc4ccccc4C[C@H]3CN3CCOCC3)n(C)c2C)c2ccc(O)cc2)c1C
8.00 to 8.30
COc1cccc(CN(C(=O)c2cc(-c3cc(C#N)ccc3C(=O)N3Cc4ccccc4C[C@H]3CN3CCOCC3)n(C)c2C)c2ccc(O)cc2)c1C
8.00 to 8.30
COc1cccc(CN(C(=O)c2cc(-c3cc(F)ccc3C(=O)N3Cc4ccccc4C[C@H]3CN3CCOCC3)n(C)c2C)c2ccc(O)cc2)c1C
≥ 8.30
Cc1c(C(=O)N(Cc2ccccc2C#N)c2ccc(O)cc2)cc(-c2cc(Cl)ccc2C(=O)N2Cc3ccccc3C[C@H]2CN2CCOCC2)n1C
≥ 8.30
COc1cccc(CN(C(=O)c2cc(-c3cc(Cl)c(C#N)cc3C(=O)N3Cc4ccccc4C[C@H]3CN3CCOCC3)n(C)c2C)c2ccc(O)cc2)c1C
≥ 8.30

The record that follows has no pIC50 shown yet.
Form field - read-out: pIC50; system: BCL-2 (Homo sapiens (Human), UniProt P10415); submitted item: COc1cccc(CN(C(=O)c2cc(-c3cc([N+](=O)[O-])ccc3C(=O)N3Cc4ccccc4C[C@H]3CN3CCOCC3)n(C)c2C)c2ccc3[nH]ncc3c2)c1C
7.30 to 8.00
